# key: entry, value: pIC50
# System: HCT-45
# test-method-notes: Cytotoxicity assay HCT-45
# Format: cell-based
# particulars: Homo sapiens, HU Colorectal, read-out: IC50 (SE) growth inhibition
pIC50: −log10 of the molar value.

# compound, measured-on, pIC50
rows = [
    ("CCCN(CCCc1ccc([N+](=O)[O-])cc1)CCc1ccc(N)cc1 [Compound 18]", "HCT-45", "< 4.00"),
    ("CCCN(CCCc1ccc(F)cc1)CCc1ccc(N)cc1 [Compound 20]", "HCT-45", "< 4.00"),
    ("CCCCN(CCCC)CCCc1ccc([N+](=O)[O-])cc1 [Compound 11, N,N-Dibutyl-3-(4-nitrohenyl)propylamine]", "HCT-45", "< 4.00"),
    ("CCCN(CCCc1ccc(F)cc1)Cc1ccc(N)cc1 [Compound 17]", "HCT-45", "< 4.00"),
    ("CCCN(CCCc1ccc(F)cc1)CCc1ccc(N=[N+]=[N-])c(I)c1 [Compound 19]", "HCT-45", 4.27),
    ("CCCCN(CCCC)CCCc1ccc(F)cc1 [Compound 10]", "HCT-45", "< 4.00"),
]

Numbers sourced from patent US8946302B2.
